Assay target: Ec_ilvC^P2D1-A1
Measurement notes: NKR assay in microtiter plates to measure inhibition by DHIV
Applied conditions: 200 μM NADH, varied (S)-2-acetolactate, pH 7; read-out: K of Ec_ilvC^P2D1-A1 for DHIV (inhibition constant)
pKi: −log10 of the molar value.
Quantity kind: pKi

CC(C)(O)C(O)C(=O)O (stereo not shown) [DHIV, 2,3-dihydroxyisovalerate] :: 4.35

====

Assay target: L. lactis KARI (Lactococcus lactis subsp. lactis, UniProt Q02138)
Sequence (Q02138 whole entry): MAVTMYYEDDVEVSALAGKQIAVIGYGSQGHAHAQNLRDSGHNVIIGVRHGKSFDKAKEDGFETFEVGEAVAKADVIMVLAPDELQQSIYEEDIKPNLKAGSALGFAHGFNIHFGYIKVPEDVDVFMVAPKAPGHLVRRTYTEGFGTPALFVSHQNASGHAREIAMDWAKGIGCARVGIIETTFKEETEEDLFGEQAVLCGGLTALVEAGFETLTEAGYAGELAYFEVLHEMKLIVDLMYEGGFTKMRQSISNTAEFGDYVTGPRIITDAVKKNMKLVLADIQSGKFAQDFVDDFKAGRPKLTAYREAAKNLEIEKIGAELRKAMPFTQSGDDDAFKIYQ
Measurement notes: KARI assay in 100-μL scale to measure IC50 in presence of R-DHIV
Applied conditions: 2.5 mM acetolactate, 200 μM NADPH, pH 7.0
Quantity kind: IC50 (µM)

CC(C)(O)[C@@H](O)C(=O)O :: 2500

====

Assay target: UniProtKB Q02138
Measurement notes: KARI assay in 100-μL scale to measure IC50 in presence of R-DHIV
Applied conditions: calculated via Cheng-Prusoff equation
Quantity kind: Ki (µM)

CC(C)(O)[C@@H](O)C(=O)O :: 1700

====

Assay target: S. exigua KARI (Slackia exigua, UniProt D0WGK0)
Sequence (D0WGK0 whole entry): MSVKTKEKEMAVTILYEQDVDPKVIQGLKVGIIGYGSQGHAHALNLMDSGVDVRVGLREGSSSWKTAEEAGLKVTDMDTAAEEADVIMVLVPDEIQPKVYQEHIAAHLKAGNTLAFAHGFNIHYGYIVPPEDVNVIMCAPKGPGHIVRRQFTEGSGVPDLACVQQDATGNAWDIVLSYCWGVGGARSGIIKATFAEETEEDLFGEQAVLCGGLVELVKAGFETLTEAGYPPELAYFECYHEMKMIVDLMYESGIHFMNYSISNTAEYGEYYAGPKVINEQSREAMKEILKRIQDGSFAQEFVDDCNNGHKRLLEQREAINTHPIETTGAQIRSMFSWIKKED
Measurement notes: KARI assay in 100-μL scale to measure IC50 in presence of R-DHIV
Applied conditions: calculated via Cheng-Prusoff equation
Quantity kind: Ki (mM)

CC(C)(O)[C@@H](O)C(=O)O :: 1.7
